meta.source: patent US20170189529A1

- TARGET: hemagglutinin (HA) of influenza B virus B/Malaysia (Victoria lineage) (influenza B virus B/Malaysia/04 …)
- EXPERIMENT DESCRIPTION: ForteBio Octet; antigen on the sensor, varying antibody concentrations
# key: entry, value: Kd
QUANTITY MEASURED: Kd (pM)

INSERT INTO assay_data (binder, display_unit, modifier, reading) VALUES
  ('TRL809 (antibody, V domains shown) VH: QVQLLESGGGVVRPGRSLRLACAGSGFTFSAYAMHWVRQAPGKGLEWVAHTSYDGRDSYYVDSVKGRFTISRDDSKNTLYLQMNSLRPEDTAVYYCAKVGPYTGYDDYNYYGMDVWGHGTTVTVSS VL: DIVLTQSPVSLAVSLGESATVNCKSSQSVLSNSKNLNYLAWYQHKPGQPPKLLIYWASTRESGVPDRFSGSGSGTDFTLTISSLQAEDVAVYYCQQHYSIPLTFGPGTKVDIKR', 'pM', '=', 200),
  ('TRL842 (antibody, V domains shown) VH: QVQLLESGGDVVQPGTSLRLSCAASGFSLWTSGMHWVRQAPGKGLEWVAVMSYDETKKYYADSVRGRFSISRDNSRNTLYLQMNSLRVEDTAVYFCAKPRLDYLDYFHAADSWGQGTLVSVSS VL: DIVLTQPPSVSVAPGQTATITCGGNYIGSKSVNWYQQRPGHAPVLVVYDDSDRPSGIPDRFSGSNSRSTATTATLTISRVEAGDEADYYCQVWETSEDLWVFGGGTKLTVLG', 'pM', '<', 1000);
